# System Under Test: HLA-B*58:01
# Run Description: IEDB peptide-MHC binding, purified MHC/direct/fluorescence; filed as Kd, often an IC50 or EC50 that approximates it; bounds were set here for any values at or beyond the usual limits of such assays
# Run Conditions: source organism: Bacillus anthracis
pKd: −log10 of the molar value.
Measured pKd values are reported for all entries that follow.

The examples below pair each entry with its known result.
FIFGKMGAG = ≤ 4.70
KVQEWYLSY = 5.44

// next item, pKd requested
Query string: Data request, read-out pKd, for RTIQGQRFW
Result string: ≤ 4.70

* * *

# System Under Test: HLA-A*69:01
# Run Description: IEDB peptide-MHC binding, purified MHC/direct/fluorescence; filed as Kd, often an IC50 or EC50 that approximates it; bounds were set here for any values at or beyond the usual limits of such assays
# Run Conditions: source organism: Mycobacterium tuberculosis
Measure Name: pKd
Keep in mind that pKd stands for -log10 of concentration in molar terms.

Query string: Data request, read-out pKd, for ALMDYGFRV
Result string: 7.38

* * *

# System Under Test: HLA-B*57:01
# Run Description: IEDB peptide-MHC binding, purified MHC/competitive/fluorescence; filed as Kd, often an IC50 or EC50 that approximates it; bounds were set here for any values at or beyond the usual limits of such assays
# Run Conditions: source organism: Escherichia coli 536
pKd: −log10 of the molar value.
Measure Name: pKd

Query string: Data request, read-out pKd, for RAMDVYCHR
Result string: ≤ 4.70

* * *

# System Under Test: HLA-A*02:12
# Run Description: IEDB peptide-MHC binding, purified MHC/direct/fluorescence; filed as Kd, often an IC50 or EC50 that approximates it; bounds were set here for any values at or beyond the usual limits of such assays
# Run Conditions: source organism: Limestone Canyon virus
pKd: −log10 of the molar value.
Measure Name: pKd

Query string: Data request, read-out pKd, for KARNIISPV
Result string: ≤ 4.70

* * *

# System Under Test: HLA-A*68:02
# Run Description: IEDB peptide-MHC binding, purified MHC/competitive/fluorescence; filed as Kd, often an IC50 or EC50 that approximates it; bounds were set here for any values at or beyond the usual limits of such assays
# Run Conditions: source organism: Bacillus anthracis str. A0488
Measure Name: Kd (µM)
Write the answer as a number in µM, unit excluded.

Query string: Request: Kd, test system HLA-A*68:02, entry KVQEWYLSY
Result string: 3.4

* * *

# System Under Test: HLA-A*03:01
# Run Description: IEDB peptide-MHC binding, purified MHC/competitive/radioactivity; filed as Kd, often an IC50 or EC50 that approximates it; bounds were set here for any values at or beyond the usual limits of such assays
# Run Conditions: source organism: Triticum aestivum
Measure Name: pKd
Keep in mind that pKd stands for -log10 of concentration in molar terms.

Query string: Data request, read-out pKd, for LQQHNIVHGK
Result string: 5.94

* * *

# System Under Test: HLA-B*46:01
# Run Description: IEDB peptide-MHC binding, purified MHC/direct/fluorescence; filed as Kd, often an IC50 or EC50 that approximates it; bounds were set here for any values at or beyond the usual limits of such assays
# Run Conditions: source organism: Orthohantavirus hantanense
Measure Name: Kd (nM)
Write the answer as a number in nM, unit excluded.

Query string: Data request, read-out Kd, for LQYAIRSVF
Result string: 1950
